measurement.kind: Ki

Write down the reported Ki of O=C(Cc1ccccc1)NC1CCN(CCCN2C(=O)COc3ccccc32)CC1 , test system: Beta-1 adrenergic receptor (Homo sapiens).
Sequence (P08588 whole entry): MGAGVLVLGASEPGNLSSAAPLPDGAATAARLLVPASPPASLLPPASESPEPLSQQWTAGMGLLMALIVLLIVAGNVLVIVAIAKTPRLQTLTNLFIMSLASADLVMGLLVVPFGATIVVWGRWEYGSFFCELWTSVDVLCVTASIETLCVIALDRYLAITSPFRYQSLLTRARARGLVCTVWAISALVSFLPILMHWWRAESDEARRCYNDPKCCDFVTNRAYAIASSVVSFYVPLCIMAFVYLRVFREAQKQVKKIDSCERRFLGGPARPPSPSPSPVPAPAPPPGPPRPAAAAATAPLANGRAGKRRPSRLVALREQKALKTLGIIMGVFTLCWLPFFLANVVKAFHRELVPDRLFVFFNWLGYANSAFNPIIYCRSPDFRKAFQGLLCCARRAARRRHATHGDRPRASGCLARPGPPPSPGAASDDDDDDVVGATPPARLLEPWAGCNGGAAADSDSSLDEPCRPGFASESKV
≥ 1000 nM

* * *

measurement.kind: Ki

Write down the reported Ki of O=C(Cc1ccccc1)NC1CCN(CCCN2C(=O)COc3ccccc32)CC1 , test system: Melatonin receptor type 1A (Homo sapiens, UniProt P48039).
Sequence (P48039 whole entry): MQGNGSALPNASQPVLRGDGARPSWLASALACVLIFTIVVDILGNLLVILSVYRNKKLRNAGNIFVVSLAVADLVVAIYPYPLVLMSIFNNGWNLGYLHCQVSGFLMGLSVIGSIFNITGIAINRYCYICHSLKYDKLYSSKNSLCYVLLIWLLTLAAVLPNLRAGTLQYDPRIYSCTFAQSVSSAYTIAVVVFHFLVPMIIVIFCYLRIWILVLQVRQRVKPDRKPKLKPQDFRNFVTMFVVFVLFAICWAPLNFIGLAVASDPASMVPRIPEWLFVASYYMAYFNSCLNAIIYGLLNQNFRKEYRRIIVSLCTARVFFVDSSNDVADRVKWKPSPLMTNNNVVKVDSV
≥ 1000 nM

* * *

measurement.kind: Ki

Write down the reported Ki of O=C(Cc1ccccc1)NC1CCN(CCCN2C(=O)COc3ccccc32)CC1 , test system: 5-hydroxytryptamine receptor 3A (Homo sapiens).
Sequence (P46098 whole entry): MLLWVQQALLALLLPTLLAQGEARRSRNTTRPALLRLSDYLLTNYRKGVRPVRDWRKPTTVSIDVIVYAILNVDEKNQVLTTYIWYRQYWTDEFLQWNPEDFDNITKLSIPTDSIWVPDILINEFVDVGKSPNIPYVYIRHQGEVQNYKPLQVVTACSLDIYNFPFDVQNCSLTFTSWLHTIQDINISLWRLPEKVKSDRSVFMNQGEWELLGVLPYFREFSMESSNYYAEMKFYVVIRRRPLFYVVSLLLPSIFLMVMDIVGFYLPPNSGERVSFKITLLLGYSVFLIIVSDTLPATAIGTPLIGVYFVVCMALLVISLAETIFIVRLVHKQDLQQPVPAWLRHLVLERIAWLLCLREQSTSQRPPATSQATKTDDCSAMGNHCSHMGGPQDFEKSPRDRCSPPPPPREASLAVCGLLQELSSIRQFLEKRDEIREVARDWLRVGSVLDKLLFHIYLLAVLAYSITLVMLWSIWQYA
≥ 1000 nM

* * *

# target.entity: D(3) dopamine receptor (Homo sapiens, UniProt P35462)
# Sequence (P35462 whole entry): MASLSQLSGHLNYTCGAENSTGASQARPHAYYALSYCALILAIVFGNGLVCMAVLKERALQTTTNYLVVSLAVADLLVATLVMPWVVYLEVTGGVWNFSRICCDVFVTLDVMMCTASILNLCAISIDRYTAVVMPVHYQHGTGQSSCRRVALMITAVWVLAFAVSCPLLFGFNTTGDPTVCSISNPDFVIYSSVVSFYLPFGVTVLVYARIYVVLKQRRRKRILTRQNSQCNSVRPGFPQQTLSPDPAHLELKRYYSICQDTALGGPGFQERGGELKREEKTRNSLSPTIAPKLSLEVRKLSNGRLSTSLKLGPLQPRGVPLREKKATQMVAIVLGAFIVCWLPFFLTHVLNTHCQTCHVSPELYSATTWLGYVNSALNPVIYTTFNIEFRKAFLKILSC
measurement.kind: Ki

Fill in the blank: the reported Ki of O=C(Cc1ccccc1)NC1CCN(CCCN2C(=O)COc3ccccc32)CC1 is ____.
≥ 1000 nM

Where do the numbers come from? From ChEMBL document CHEMBL1240489.
